Tested on: V. cholerae SAD30
Construct: SAD30
Parameters: species or system S. aureus MSSA476 (TSB) or V. cholerae SAD30 (LB); 384-well bacterial growth screen at 25 uM, OD600 relative to DMSO control
condition-label: relative growth, OD600, LB; 25 µM; inhibitor
About 110 (3.4%) of roughly 3,200 compounds showed an effect of 50% or more. The sample holds strong results, similar compounds and a random draw of the others, so the mix is not that of the screen.
endpoint-name: % of control remaining (%)
Give your result in % as a bare value.

# annotated cases, reported % of control remaining shown
{"compound": "CSc1cccc(-n2c(C)cc(C(=O)CCl)c2C)c1 [10-J16]", "experimental-target": "V. cholerae SAD30", "endpoint-name": "% of control remaining", "unit-of-measure": "%", "result": 105.825}
{"compound": "O=C1C=CC(=O)N1c1ccc(SC(F)F)cc1 [10-A18]", "experimental-target": "V. cholerae SAD30", "endpoint-name": "% of control remaining", "unit-of-measure": "%", "result": 28.9889}

Task: I am curious: what % of control remaining value has been reported for Cc1ccc(NC(=O)C(C)Cl)cc1S(=O)(=O)N1CCOCC1 (stereo not drawn) [5-D22] ?
Result: 107.429

Task: Continue with Cc1ccc(C(=O)CCl)o1 [10-A09]
Result: 117.514

Task: Continue with C=CC(=O)NC1CS(=O)(=O)C1 [3-P18]
Result: 112.909

Task: Continue with COc1ccc(OC)c(NC(=O)CCl)c1 [6-O04]
Result: 96.0091

Task: Continue with Cn1cc(C(=O)CCl)cc1C(N)=O [10-J06]
Result: 97.5648

Task: Continue with COc1cc(Cl)c(C)cc1N1C(=O)C=CC1=O [10-B15]
Result: 23.534

Task: Continue with COc1ccc(OC)c(N2C(=O)C=CC2=O)c1 [10-N15]
Result: 24.7808

Task: Continue with CC(Cl)C(=O)N1CCCC(n2ccc(C(F)(F)F)n2)C1 (stereo not drawn) [7-A08]
Result: 84.3218

Task: Continue with COc1ccc(OC)c(C(C)NC(=O)CCl)c1 (stereo not drawn) [4-M19]
Result: 102.48

Task: Continue with O=C(CCl)c1cn(-c2cccc(C(F)(F)F)c2)nn1 [10-C09]
Result: 24.9367

Task: Continue with C=CC(=O)N1CCC(C(=O)N[C@H]2CCC[C@H]2O)CC1 [2-K04]
Result: 95.9085
